Data origin: ChEMBL document CHEMBL1153989

- System: Simian immunodeficiency virus
- protocol: Antiviral activity against SIV-induced syncytium in human CEM174 cells assessed as inhibition of virus-induced cytopathogenicity after 5 days
- Assay type: functional, organism-based
- conditions: CEM174, 120 h
value.kind: EC50 (nM)
Quick reminder: number only, in nM, skip the unit.

What value of EC50 on Simian immunodeficiency virus does O=C(N/N=C/c1ccccc1)[C@H](CO)NS(=O)(=O)c1ccc(Br)cc1 have?
36000

What value of EC50 on Simian immunodeficiency virus does CC(=O)Nc1ccc(S(=O)(=O)N[C@@H](CO)C(=O)N/N=C/c2ccccc2)cc1 have?
1320

What value of EC50 on Simian immunodeficiency virus does Cc1ccc(S(=O)(=O)N/N=C/c2ccccc2)cc1 have?
360

What value of EC50 on Simian immunodeficiency virus does Cc1ccc(S(=O)(=O)N[C@@H](Cc2ccccc2)C(=O)NN=C(c2ccccc2)c2ccccc2)cc1 have?
270

What value of EC50 on Simian immunodeficiency virus does CC(=O)Nc1ccc(S(=O)(=O)NCC(=O)N/N=C/c2ccccc2)cc1 have?
15100

What value of EC50 on Simian immunodeficiency virus does Cc1ccc(S(=O)(=O)N[C@@H](Cc2ccccc2)C(=O)N/N=C/c2ccco2)cc1 have?
2460

What value of EC50 on Simian immunodeficiency virus does Cc1ccc(S(=O)(=O)N[C@@H](Cc2ccccc2)C(=O)N/N=C/c2ccc(Cl)cc2)cc1 have?
2800

What value of EC50 on Simian immunodeficiency virus does O=C(N/N=C/c1ccccc1)[C@H](Cc1ccccc1)NS(=O)(=O)c1ccc(Br)cc1 have?
15300

What value of EC50 on Simian immunodeficiency virus does O=C(N/N=C/c1ccccc1)c1ccc([N+](=O)[O-])cc1 have?
5590

What value of EC50 on Simian immunodeficiency virus does COc1ccc(C(=O)NCC(=O)N/N=C/c2ccccc2)cc1 have?
2000

What value of EC50 on Simian immunodeficiency virus does Cc1ccc(S(=O)(=O)N[C@@H](Cc2ccccc2)C(=O)N/N=C/c2ccc(Br)cc2)cc1 have?
5490

What value of EC50 on Simian immunodeficiency virus does COc1ccc(C(=O)N[C@@H](CO)C(=O)N/N=C/c2ccccc2)cc1 have?
600

What value of EC50 on Simian immunodeficiency virus does COc1ccc(C(=O)N/N=C/c2ccccc2)cc1 have?
31000

What value of EC50 on Simian immunodeficiency virus does Cc1ccc(S(=O)(=O)NCC(=O)N/N=C/c2ccccc2)cc1 have?
1500

What value of EC50 on Simian immunodeficiency virus does C/C(=N\NC(=O)[C@H](Cc1ccccc1)NS(=O)(=O)c1ccc(C)cc1)c1ccccc1 have?
300

What value of EC50 on Simian immunodeficiency virus does O=S(=O)(N/N=C/c1ccccc1)c1ccc(Br)cc1 have?
950

What value of EC50 on Simian immunodeficiency virus does Cc1ccc(/C=N/NC(=O)[C@H](Cc2ccccc2)NS(=O)(=O)c2ccc(C)cc2)cc1 have?
9930

What value of EC50 on Simian immunodeficiency virus does Cc1ccc(S(=O)(=O)N[C@@H](CO)C(=O)N/N=C/c2ccccc2)cc1 have?
1630

What value of EC50 on Simian immunodeficiency virus does O=C(N[C@@H](CO)C(=O)N/N=C/c1ccccc1)c1ccc([N+](=O)[O-])cc1 have?
2000

What value of EC50 on Simian immunodeficiency virus does Cc1ccc(S(=O)(=O)N[C@@H](Cc2ccccc2)C(=O)N/N=C/c2ccc3c(c2)OCO3)cc1 have?
170

What value of EC50 on Simian immunodeficiency virus does C/C(=N\NC(=O)[C@H](Cc1ccccc1)NS(=O)(=O)c1ccc(C)cc1)c1cccc2ccccc12 have?
400

What value of EC50 on Simian immunodeficiency virus does COc1cc(/C=N/NC(=O)[C@H](Cc2ccccc2)NS(=O)(=O)c2ccc(C)cc2)ccc1O have?
210

What value of EC50 on Simian immunodeficiency virus does O=S(=O)(c1ccc(Br)cc1)N1CCC(c2ccccc2)=N1 have?
100

What value of EC50 on Simian immunodeficiency virus does COc1ccc(C(=O)N[C@@H](Cc2ccccc2)C(=O)N/N=C/c2ccccc2)cc1 have?
200

What value of EC50 on Simian immunodeficiency virus does Cc1ccc(S(=O)(=O)N[C@@H](Cc2ccccc2)C(=O)N/N=C/c2ccccc2F)cc1 have?
4450

What value of EC50 on Simian immunodeficiency virus does Cc1ccc(S(=O)(=O)N[C@@H](Cc2ccccc2)C(=O)NN=C2CCCCC2)cc1 have?
890

What value of EC50 on Simian immunodeficiency virus does O=C(CNS(=O)(=O)c1ccc(Br)cc1)N/N=C/c1ccccc1 have?
330

What value of EC50 on Simian immunodeficiency virus does CC(=O)Nc1ccc(S(=O)(=O)N/N=C/c2ccccc2)cc1 have?
650

What value of EC50 on Simian immunodeficiency virus does Cc1ccc(S(=O)(=O)N[C@@H](Cc2ccccc2)C(=O)N/N=C/c2ccc([N+](=O)[O-])cc2)cc1 have?
6640

What value of EC50 on Simian immunodeficiency virus does CC(=O)Nc1ccc(S(=O)(=O)N[C@@H](Cc2ccccc2)C(=O)N/N=C/c2ccccc2)cc1 have?
470

What value of EC50 on Simian immunodeficiency virus does Cc1ccc(S(=O)(=O)N[C@@H](Cc2ccccc2)C(=O)N/N=C/c2ccccc2)cc1 have?
400

What value of EC50 on Simian immunodeficiency virus does O=[N+]([O-])c1ccc(S(=O)(=O)N2CCC(c3ccccc3)=N2)cc1 have?
520

What value of EC50 on Simian immunodeficiency virus does O=C(N[C@@H](Cc1ccccc1)C(=O)N/N=C/c1ccccc1)c1ccc([N+](=O)[O-])cc1 have?
3000

What value of EC50 on Simian immunodeficiency virus does O=C(CNC(=O)c1ccc([N+](=O)[O-])cc1)N/N=C/c1ccccc1 have?
1030
